- assay comment: soluble on expression in E. coli; label from the status in PepcDB or PDB records
measured property: soluble on expression in E. coli

{"columns": ["residue codes", "value reported"],
 "data": [
  ["MLHCLDEFGNLKLKAIIDWQGVSTLPPGLDLSRLLMGCLSAHERRERGLEMLKLYHETFNQVLGKELFSFQELQDSYNLYYPMMAMALLPLVSSLAENSQVSEVEKAQIRFKTETKLVAMMEDLIEVHEYNLKHFPEILKG", "not soluble"],
  ["MGSDKIHHHHHHGGLGDKSFNDGTWAGIKQAAEELGIEAKVIQSYEQSDYIPNLSKAAEEADLVFAVGFMMTNDLFKVAKQYPDTYFVGIDITPPEGQILPNVLTFTFKEQEAAFLVGYVAAAMTKTGMVGFVGGIPIPPVERFRYGYEAGIKTYSVLHKKNVKILRGYTQDFEDPKKGKDLAMSQFAEGADIVFHASGACGNGVIEAAREKFSALAGSDKLVDLIDYYTTNGKGFFAIGVDMDQDYMAPGAVLTSAMKRVDVASYYGVVWAYEGTFEGGHRVLGISEDAVGISPMKYTKGLVPNRVIAELLYLEKLMKEGTLKVPETQEELDAFEVPQIEFPF", "not soluble"],
  ["MGSDKIHHHHHHMKILIKQDFDTMSEWAKMLLLSTMSQDKRVNLSITAGKTPALVYQKLASIVKNSSDFDNVHYYNFDEIPVPHQKEGITLTDLRTLYLTPAEISEQNIHPLTVENFQQQEQRIADAGGLDLMLIGLGADGHFCGNMPTTTHFKNETYQVTVTGSEPWFVPEMMQPGMTFVTMGPASIMKVKHLVLIVNGEQKAQMVKQVLQGPVTETYPASILQLHPNLTVLLDEAAASQLEK", "not soluble"]
]}
